Data origin: ChEMBL document CHEMBL1201862

- System: T47D
- Method Description: NCI tumour cell line growth inhibition, 48 h
Calls of active or inactive are those of the source. Rule as the data show it: active = GI50 up to about 1.1 µM and inactive = higher. Residues, ends and D or L forms follow the SMILES beside them. *: point of attachment. Boc = CC(C)(C)OC(=O)*; OBn = c1ccc(CO*)cc1
# valid calls are YES = active, NO = inactive; nothing else

Record lookup: outcome of this test for CC(C)C1CC(CO)(CNc2nc(N)nc(Cl)c2/C=N\O)C1 (stereo not given) ? NO

Record lookup: outcome of this test for CCOc1ccc2c(c1)C(/C(C(Cl)=C(Cl)Cl)=[N+](/[O-])OC(=O)c1ccccc1)=N2 ? NO

Record lookup: outcome of this test for COc1cc(CNc2nc3ccccc3n2Cc2ccccc2)cc(CN2CCOCC2)c1O ? NO

More entries:
Record lookup: outcome of this test for CCc1ccc(/C=C\c2cc(OC)c(OC)c(OC)c2)cc1 ? YES

Record lookup: outcome of this test for CC(NC(=O)Cc1ccccc1)NC(=O)C(C)C(=O)NCc1ccccc1 (stereo not given) ? NO

Record lookup: outcome of this test for CO/C(=N/N1CC1C(F)(F)F)c1ccncc1 (stereo not given) ? NO

Record lookup: outcome of this test for COC(=O)CCC(=O)c1ccc2c(c1)CC1(C2)Cc2ccc(C(=O)CCC(=O)OC)cc2C1 ? NO

Record lookup: outcome of this test for CSC(=S)NN=C1CCCCC1 ? NO

Record lookup: outcome of this test for Cc1cccc2c(N)c3cccc(C(=O)NCCNCCN)c3nc12 ? NO

Record lookup: outcome of this test for N#Cc1c2c(c(Nc3ccc(Cl)cc3)n3c1nc1ccccc13)CCCC2 ? NO

Record lookup: outcome of this test for CC(C)C(NC(=O)C(Cc1ccccc1)NC(=O)OC(C)(C)C)C(=O)NCC(=O)OCc1ccccc1 (stereo not drawn) (Boc-Phe-Val-Gly-OBn; configuration not given here) ? NO

Record lookup: outcome of this test for CO[C@@H](c1ccccc1)[C@H](O)[C@@](O)(c1ccccc1)P(=O)(OC)OC ? NO

Record lookup: outcome of this test for Cc1c(Cl)cccc1NC(=O)/C=C/c1ccccc1 ? NO
